MEASURED_ON: Mitogen-activated protein kinase kinase kinase 2 (Homo sapiens) (UniProt Q9Y2U5)
RUN_DESCRIPTION: modulators of MEK5 binding to wildtype MEKK2, primary screen, biochemical, multiplex bead flow cytometry, Alexa488-MEK5 (AID 1531)
CONDITION_NOTES: Alexa488-MEK5 binding to MEKK2 WT, at 10 µM, actives lie on both sides
The campaign covered roughly 290,000 compounds. About 3,300 (1.1%) were called active. No stated cut-off is given here; in the data, active means binding response below about 67% or above about 130%; inconclusive means no clear call, values can overlap the other calls; inactive means in between. For the sample, actives were picked, then their nearest neighbours and some compounds at random.
Output constraint: value belongs to active, inactive

Problem: What classification did Cc1onc(-c2ccccc2Cl)c1C(=O)NCCn1ccc2ccccc21 end up with in this test?
Result: inactive

Problem: Tell me the recorded outcome of this test for NC(N)=Nc1nc(-c2ccccc2)c2cc(Cl)ccc2n1 .
Result: active

Problem: What did the test return for Cc1onc(-c2ccccc2Cl)c1C(=O)OCC(=O)c1ccccc1 ?
Result: active

Problem: // return assay outcome for CC1CN(C(=O)CCC(=O)NC2CCN(Cc3ccccc3)CC2)c2ccccc2O1 (stereo unspecified)
Result: inactive

Problem: Which outcome did this test record for the molecule O=C(Cn1cnc([N+](=O)[O-])n1)NCCc1ccccc1 ?
Result: inactive

Problem: For CC(C)(C)NC(=O)Cn1cnc2cc([N+](=O)[O-])ccc2c1=O , which call appears in the assay record?
Result: inactive

Problem: // outcome(item) with item = CC1CN(C(=O)CCC(=O)NCCCN2CCC(Cc3ccccc3)CC2)c2cc(Cl)ccc2O1 (stereo unspecified)
Result: active

Problem: Which result was noted for this molecule in the test: O=C(c1ccc(Cl)cc1)n1cnc2ccccc21
Result: inactive

Problem: Recorded test outcome, item O=C(NC1CC1)C1=C[C@H](c2coc3ccccc3c2=O)C[C@H](OCCCCO)O1
Result: inactive

Problem: Short answer needed: outcome of this test for COc1ccc(CN2[C@@H](CC(=O)O)c3cc(F)ccc3S2(=O)=O)cc1 ?
Result: inactive

Problem: Call for entry O=C(CCl)NNc1nc(-c2ccccc2)c2cc(Cl)ccc2n1 :
Result: inactive
